All figures here come from PubChem BioAssay.

System: Plasmodium falciparum Sir2 (PF13_0152, Sir2A)
Experiment: pfSir2 binders on small-molecule microarrays, primary screen, biochemical, small-molecule microarray, 635 nm fluorescence (AID 1098);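 also: score merges spot fluorescence intensity with its signal-to-noise ratio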
Conditions: small-molecule microarray binding, fluorescence 635 nm; higher = more signal
Consider the following compounds and their measured composite z-score readings.
Would you mind answering with just the numeric figure?

Known composite z-score results, listed for orientation:
- compound: "C=CCC(OC(C)=O)[C@@H]1[C@@H](N(Cc2ccc(-c3ccccc3)cc2)C(=O)c2ccc(-c3ccccc3)cc2)c2cc(OCCCO)ccc2N1C(=O)c1ccc2ccccc2n1 (some centres not stated)"
  composite z-score: 0.212
- compound: "COC(=O)C1=CC(CCCO)=CC(c2ccc(CN3CCCC3)cc2)N(Cc2sc3ccccc3c2Cl)C=C1C(=O)OC (configuration not stated)"
  composite z-score: 1.81
- compound: "COC(=O)[C@@]1(CCC(=O)OC(C)(C)C)N=C(c2ccc(OCCCO)cc2)O[C@H]1c1ccccc1CN=[N+]=[N-]"
  composite z-score: 1.3
- compound: "CN(C)CCCNC(=O)[C@@]1(Cc2ccccc2I)c2ccccc2C(=O)N(Cc2ccccc2)[C@H]1c1ccc(CO)cc1"
  composite z-score: 1.54
- compound: "C=CCC(OC(C)=O)[C@@H]1[C@@H](N(Cc2ccc(-c3cccc(C(F)(F)F)c3)o2)C(=O)c2cccc3ccccc23)c2cc(OCCCO)ccc2N1C(=O)c1ccc2ccccc2n1 (some centres not stated)"
  composite z-score: 0.765
- compound: "Cc1ccccc1C(O)C1C=CC2C(=O)N(c3ccccc3)C(=O)C2N1Nc1ccccc1F (configuration not stated)"
  composite z-score: 1.31

// switching to the query compound
Sample `COCCCNC(=O)[C@@H]1c2ccccc2C(=O)N(C2CCCCC2)[C@H]1c1ccc(CO)cc1` — what was its composite z-score?
1.2

###

Assay: binders of probe aFGF10 on microarray, primary screen, stem cell growth factor project, biochemical, small-molecule microarray, fluorescence 635/667 (AID 1071);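 also: score merges 667 nm spot intensity and signal to noise from triplicate slides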
Conditions: higher = more signal
experimental endpoint: composite z-score
Enter a number only.

composite z-score lookup needed for `COCC1=C([C@H](O)CCc2ccccc2)[C@H](CO)n2c(=O)n(-c3ccccc3)c(=O)n2C1` , thanks.
0.204

Quick check: composite z-score of `Cc1ccc(S(=O)(=O)N2[C@@H](c3ccccc3)C(C(=O)O)=CC[C@H]2c2ccc(C#N)cc2)cc1` ?
1.07

###

Assay: E. coli acrAB mutant growth effects, primary screen, E. coli filamentation inducers, strain DRC39, OD650, 24 h (AID 1178);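 also: growth measured as culture turbidity by optical density at 650 nm; test concentration not given here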
Details: higher = more signal, called active from +8 up or from −8 down
experimental endpoint: z-score
Reply briefly: the number, and no unit.

Below are worked cases with known answers.
- molecule: "C=CCOC(=O)[C@H]1[C@@H]2C(=O)O[C@@H](c3ccccc3)[C@@H](c3ccccc3)N2[C@@H](c2ccc(OCCOC(=O)[C@H]3C[C@H]4C(=O)NCC(=O)N4[C@H]3c3ccc(O)cc3)cc2)[C@]12C(=O)Nc1ccc(I)cc12"
  experimental endpoint: "z-score"
  quantitative readout: 0.157
- molecule: "COc1ccccc1CN1C(=O)c2ccccc2[C@](Cc2ccccc2I)(C(=O)NCCCN(C)C)[C@@H]1c1ccc(CO)cc1"
  experimental endpoint: "z-score"
  quantitative readout: -1.17

What measured z-score goes with COC(=O)C1=CC(CCCO)=CC(C2CC2)N(Cc2cccc(OC(F)(F)F)c2)C=C1C(=O)OC (stereo not drawn) ?
1.01

###

Test: S. cerevisiae RM11-1a growth modifiers, primary screen, strain RM11-1a, OD600, basal, 24 h (AID 1177);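 also: cultures grown under basal conditions with no added stressor; test concentration not given here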
Conditions: OD600, 24 h, higher = more signal, called active from +8 up or from −8 down
experimental endpoint: z-score
// no unit, no text: just the number

In the examples that follow, each entry is paired with its recorded z-score.
- molecule: "CC(C)(C)N1CC=CC23O[C@@H]4/C=C\\CCCOC(=O)C4[C@H]2C(=O)N(CCCCCCO)[C@@H]3C1=O (some centres undefined)"
  z-score: -1.13
- molecule: "C=CCOC(=O)[C@H]1[C@@H]2C(=O)O[C@@H](c3ccccc3)[C@@H](c3ccccc3)N2[C@@H](c2ccc(OCCOC(=O)[C@@H]3C[C@@H]4C(=O)N[C@@H](Cc5ccccc5)C(=O)N4[C@@H]3c3ccc(O)cc3)cc2)[C@]12C(=O)Nc1ccccc12"
  z-score: 0.818

Name the reported z-score value associated with the molecule O=C1C2C=CC(C(O)C(c3ccccc3)c3ccccc3)N(Nc3ccccc3)C2C(=O)N1c1ccccc1 (centres undefined)
0.347

What measured z-score goes with `CC(C)[Si](C#CCCCC#N)(O[C@H](c1ccccc1)c1cn([C@H](C)c2ccccc2)nn1)C(C)C` ?
-0.802

May I ask what z-score has been recorded for `O=C1N(Cc2ccccc2)c2ccccc2[C@H]2OC(c3ccc(OCCCO)cc3)=N[C@@]12Cc1ccccc1` ?
2.15

Looking for the measured z-score of `C=CC[C@]1(C(=O)OC)N=C(c2ccc(OCCCO)cc2)O[C@H]1c1ccccc1N=[N+]=[N-]` , can you help?
1.6

###

# composite z-score per record follows
System: Sonic hedgehog protein (Shh)
Test: small-molecule binders of Shh protein, primary screen, biochemical, small-molecule microarray, 635/667 nm fluorescence (AID 1151);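 also: Shh protein binding to compounds spotted on small-molecule microarray slides; score combines spot fluorescence intensity with signal-to-noise across triplicate slides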
Conditions: small-molecule microarray binding, 635 nm fluorescence; higher = more signal
Give the figure only, with no unit attached.

Check out these entries, answers already filled in.
- compound: "CC(C)[C@@H](C(=O)O)n1cc(-c2ccccc2)nn1"
  composite z-score: 0.128
- compound: "NC(=O)NCC#Cc1ccc2c(c1)[C@]1(C(=O)N2)[C@H](C(=O)N2CCCCCCC2)[C@H]2C(=O)O[C@H](c3ccccc3)[C@H](c3ccccc3)N2[C@@H]1c1ccc(O)cc1"
  composite z-score: 1.22
- compound: "CN1C(=O)[C@]2(CCS(=O)(=O)c3ccccc3)N=C(c3ccc(OCCCO)cc3)O[C@@H]2c2ccccc21"
  composite z-score: 1.54
- compound: "COC(=O)[C@@H]1N=C(c2ccc(OCCCO)cc2)O[C@@H]1c1ccccc1CN=[N+]=[N-]"
  composite z-score: 0.0121
- compound: "Cc1c(-c2ccc(-c3ccc(Cl)c(Cl)c3)o2)nc(-c2ccccc2)c2c1CO[Si]2(C(C)C)C(C)C"
  composite z-score: 0.426
- compound: "N#Cc1ccc(C(O)C2C=CC3C(=O)N(c4ccccc4)C(=O)C3N2Nc2ccc([N+](=O)[O-])cc2)cc1 (stereo not drawn)"
  composite z-score: -0.51
- compound: "CC[C@H](C)C(=O)O[C@H]1CC[C@]2(C)C3=C(CCC2C1(C)C)[C@]1(C)CC[C@H]([C@H](C)CCCC(C)C)[C@@]1(C)CC3 (stereo partly drawn)"
  composite z-score: 0.613

Can you look up the measured composite z-score of `CCOC(=O)C1=CC[C@@H](c2ccccc2)N(S(=O)(=O)c2ccc(C)cc2)[C@H]1C#N` for me?
-0.707

###

// z-score lookup, one value per entry
Molecular target: NADPH oxidase 5 (Homo sapiens) (UniProt Q96PH1)
Sequence (Q96PH1 whole entry, looked up): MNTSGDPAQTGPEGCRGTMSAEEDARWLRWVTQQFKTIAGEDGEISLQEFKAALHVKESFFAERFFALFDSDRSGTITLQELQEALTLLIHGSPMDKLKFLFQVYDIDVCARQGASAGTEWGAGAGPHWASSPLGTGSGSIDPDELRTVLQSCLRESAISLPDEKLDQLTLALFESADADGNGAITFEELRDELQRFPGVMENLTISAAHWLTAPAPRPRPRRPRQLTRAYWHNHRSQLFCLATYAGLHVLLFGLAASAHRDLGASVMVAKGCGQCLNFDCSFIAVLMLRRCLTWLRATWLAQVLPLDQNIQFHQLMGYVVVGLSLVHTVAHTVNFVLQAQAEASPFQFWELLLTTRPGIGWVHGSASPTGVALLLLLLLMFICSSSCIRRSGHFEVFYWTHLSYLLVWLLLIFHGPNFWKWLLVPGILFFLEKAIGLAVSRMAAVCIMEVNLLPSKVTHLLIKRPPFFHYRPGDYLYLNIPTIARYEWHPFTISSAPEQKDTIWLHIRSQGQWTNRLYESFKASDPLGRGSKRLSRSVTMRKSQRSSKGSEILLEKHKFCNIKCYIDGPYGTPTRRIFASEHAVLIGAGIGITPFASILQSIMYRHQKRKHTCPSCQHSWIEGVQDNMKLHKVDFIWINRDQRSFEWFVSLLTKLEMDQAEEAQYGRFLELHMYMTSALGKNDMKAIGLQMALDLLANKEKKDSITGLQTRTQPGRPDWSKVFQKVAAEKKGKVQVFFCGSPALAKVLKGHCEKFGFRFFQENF
Experiment: NOX5-dependent H2O2 signal modulators, primary screen, NOX inhibitor project, cell-based, HEK293-NOX5, Amplex Red fluorescence (AID 1161)
Conditions: HEK293-NOX5, ionomycin, 45 min, higher = more signal
Just the number, please.

Sample answers from the record:
- compound: "CC(C)C[C@@H]1NC(=O)[C@@H]2C[C@H](C(=O)NCCCC[N+](C)(C)C)[C@H](c3ccc(O)cc3)N2C1=O"
  quantitative readout: -2.19
- compound: "CCOC(=O)C1=CCC(c2cc3ccccc3[nH]2)N(S(=O)(=O)c2ccccc2[N+](=O)[O-])C1 (centres undefined)"
  quantitative readout: 0.731
- compound: "CCCC=C(CCC)[C@@H](NC(=O)c1ccco1)c1ccc(C(=O)OC)cc1"
  quantitative readout: 1.99
- compound: "CC(C)C(=C=CC[C@@H](O)c1cccc(OCCO)c1)CCO"
  quantitative readout: -1.26
- compound: "COc1ccc(CC[C@H](O)c2cccc(OCC(=O)OC(C)(C)C)c2)cc1"
  quantitative readout: -4.03

Bench note: what z-score did `COCCCNC(=O)[C@@]1(Sc2ccc(C)cc2)CC(=O)N(C2CCCCC2)[C@@H]1c1ccc(CO)cc1I` show?
1.43

Which z-score is reported for this compound? `CCCCCCc1nc(-c2ccc(OC)nc2)cc2c1[Si](C(C)C)(C(C)C)OC2`
-4.22

Field request: z-score | item: `CCCC[C@@H](O)C1=C(COC)Cn2c(=O)n(-c3ccccc3)c(=O)n2[C@H]1CO`
0.716

Give the measured z-score of O=C1OCCC=C[C@H]2OC34C=CCN(c5ccc(Cl)cc5)C(=O)[C@H]3N(CCO)C(=O)[C@@H]4C12 (some centres undefined) .
1.48

Which value of z-score has been reported for C=CCC(OC(C)=O)[C@@H]1[C@@H](N(Cc2ccc(-c3ccccc3)cc2)C(=O)c2cccc3ccccc23)c2cc(OCCCO)ccc2N1C(=O)c1ccc2ccccc2c1 (some centres undefined) in the records?
-4.29
